These entries and their values trace back to patent US20220185898A1.

Measured pKd, listed per entry.
molecular target: T1, mouse Sortilin expressed on 293 / HEK293T cells (mouse, UniProt Q6PHU5 74-825); assay: FACS, HEK293T + msSort
T1 construct: full-length recombinant mouse Sortilin; also called mSort; msSort
Interpret pKd as the negative base-10 log of the concentration measured in mol/L.

binder	experimental.readout	test.result
S-15-6 (antibody, V domains shown, IgG) VH: QVQLVQSGAEVKKPGASVKVSCKASGYTFTSRYMSWVRQAPGQGLEWMGIINPVGGSTSYAQKFQGRVTMTRDTSTSTVYMELSSLRSEDTAVYYCARDPSGIAAAGPASRYYYGMDVWGQGTTVTVSS VL: EIVMTQSPATLSVSPGERATLSCRASQSVSSNLAWYQQKPGQAPRLLIYGASTRATGIPARFSGSGSGTEFTLTISSLQSEDFAVYYCQQARLGPWTFGGGTKVEIK	pKd	7.72
S-2-11 (antibody, V domains shown, IgG) VH: QVQLVQSGAEVKKPGASVKVSCKASGYTFLAYYMHWVRQAPGQGLEWMGWINPSWGSTSYAQKFQGRVTMTRDTSISTAYMELSRLRSDDTAVYYCARGKRSSGWYEGYGMDVWGQGTTVTVSS VL: DIQMTQSPSSLSASVGDRVTITCRASQSISSYLNWYQQKPGKAPKLLIYAASSLQSGVPSRFSGSGSGTDFTLTISSLQPEDFATYYCQQSDVSPITFGGGTKVEIK	pKd	8.81

With those in mind, consider the next binder.
Recorded pKd of S-2-1 (antibody, V domains shown, IgG) VH: QVQLVQSGAEVKKPGASVKVSCKASGYTFGAYYMHWVRQAPGQGLEWMGWINPNSGFTRYAQKFQGRVTMTRDTSISTAYMELSRLRSDDTAVYYCARGKRSSGWYEGYGMDVWGQGTTVTVSS VL: DIQMTQSPSSLSASVGDRVTITCRASQSISSYLNWYQQKPGKAPKLLIYAASSLQSGVPSRFSGSGSGTDFTLTISSLQPEDFATYYCQQSDVSPITFGGGTKVEIK , please.
8.58
